METHOD DESCRIPTION: Kinetic study: plasma kinetics of TMC278 after single IM or SC injection of a nanosuspension
Assay type: in vivo, male beagle dogs
TEST CONDITIONS: male, beagle, dog, plasma, intramuscular, 5 mg/kg, plasma concentration of TMC278, single IM 5 mg/kg TMC278 nanosuspension, mean of 2 dogs, 8 h
ENDPOINT LABEL: concentration at 8 h (ng/mL)
Give bare numbers, in ng/mL.

The measured concentration at 8 h associated with Cc1cc(C=CC#N)cc(C)c1Nc1ccnc(Nc2ccc(C#N)cc2)n1 reads 133

###

METHOD DESCRIPTION: Kinetic study: plasma kinetics of TMC278 after single IM or SC injection of a nanosuspension
Type: in vivo, male beagle dogs
TEST CONDITIONS: male, beagle, dog, plasma, sc, 5 mg/kg, plasma concentration of TMC278, single SC 5 mg/kg TMC278 nanosuspension, dog 19129, 696 h (d29)
ENDPOINT LABEL: concentration at 696 h (ng/mL)
Answers are plain numbers, in ng/mL.

The measured concentration at 696 h associated with Cc1cc(C=CC#N)cc(C)c1Nc1ccnc(Nc2ccc(C#N)cc2)n1 reads 21

###

METHOD DESCRIPTION: Kinetic study: plasma kinetics of TMC278 after single IM or SC injection of a nanosuspension
Assay type: in vivo, male beagle dogs
TEST CONDITIONS: male, beagle, dog, plasma, intramuscular, 5 mg/kg, plasma concentration of TMC278, single IM 5 mg/kg TMC278 nanosuspension, mean of 2 dogs, 0 h (d0, predose)
ENDPOINT LABEL: concentration at 0 h

The measured concentration at 0 h associated with Cc1cc(C=CC#N)cc(C)c1Nc1ccnc(Nc2ccc(C#N)cc2)n1 reads < 1 ng/mL

###

METHOD DESCRIPTION: Kinetic study: plasma kinetics of TMC278 after single IM or SC injection of a nanosuspension
Assay type: in vivo, male beagle dogs
TEST CONDITIONS: male, beagle, dog, plasma, intramuscular, 5 mg/kg, plasma concentration of TMC278, single IM 5 mg/kg TMC278 nanosuspension, dog 17264, 480 h (d20)
ENDPOINT LABEL: concentration at 480 h (ng/mL)
Give bare numbers, in ng/mL.

The measured concentration at 480 h associated with Cc1cc(C=CC#N)cc(C)c1Nc1ccnc(Nc2ccc(C#N)cc2)n1 reads 20.5

###

METHOD DESCRIPTION: Kinetic study: plasma kinetics of TMC278 after single IM or SC injection of a nanosuspension
Format: in vivo, male beagle dogs
TEST CONDITIONS: male, beagle, dog, plasma, sc, 5 mg/kg, plasma concentration of TMC278, single SC 5 mg/kg TMC278 nanosuspension, mean of 2 dogs, 1032 h (d43)
ENDPOINT LABEL: concentration at 1032 h (ng/mL)
Numbers only, in ng/mL.

The measured concentration at 1032 h associated with Cc1cc(C=CC#N)cc(C)c1Nc1ccnc(Nc2ccc(C#N)cc2)n1 [TMC278] reads 5.63

###

METHOD DESCRIPTION: Kinetic study: plasma kinetics of TMC278 after single IM or SC injection of a nanosuspension
Assay type: in vivo, male beagle dogs
TEST CONDITIONS: male, beagle, dog, plasma, intramuscular, 5 mg/kg, plasma concentration of TMC278, single IM 5 mg/kg TMC278 nanosuspension, dog 18186, 1704 h (d71)
ENDPOINT LABEL: concentration at 1704 h

The measured concentration at 1704 h associated with Cc1cc(C=CC#N)cc(C)c1Nc1ccnc(Nc2ccc(C#N)cc2)n1 [TMC278] reads 1.84 ng/mL

###

METHOD DESCRIPTION: Kinetic study: plasma kinetics of TMC278 after single IM or SC injection of a nanosuspension
Format: in vivo, male beagle dogs
TEST CONDITIONS: male, beagle, dog, plasma, sc, 5 mg/kg, plasma concentration of TMC278, single SC 5 mg/kg TMC278 nanosuspension, dog 19129, 864 h (d36)
ENDPOINT LABEL: concentration at 864 h

The measured concentration at 864 h associated with Cc1cc(C=CC#N)cc(C)c1Nc1ccnc(Nc2ccc(C#N)cc2)n1 [TMC278] reads 12.7 ng/mL

###

METHOD DESCRIPTION: Kinetic study: plasma kinetics of TMC278 after single IM or SC injection of a nanosuspension
Assay type: in vivo, male beagle dogs
TEST CONDITIONS: male, beagle, dog, plasma, im, 5 mg/kg, single IM 5 mg/kg TMC278 nanosuspension, dog 17264; read-out: Tmax
ENDPOINT LABEL: Tmax (h)
Give bare numbers, in h.

The measured Tmax associated with Cc1cc(C=CC#N)cc(C)c1Nc1ccnc(Nc2ccc(C#N)cc2)n1 reads 48

###

METHOD DESCRIPTION: Kinetic study: plasma kinetics of TMC278 after single IM or SC injection of a nanosuspension
Format: in vivo, male beagle dogs
TEST CONDITIONS: male, beagle, dog, plasma, sc, 5 mg/kg, plasma concentration of TMC278, single SC 5 mg/kg TMC278 nanosuspension, mean of 2 dogs, 384 h (d16)
ENDPOINT LABEL: concentration at 384 h (ng/mL)
One number for each entry, in ng/mL.

The measured concentration at 384 h associated with Cc1cc(C=CC#N)cc(C)c1Nc1ccnc(Nc2ccc(C#N)cc2)n1 [TMC278] reads 19.2

###

METHOD DESCRIPTION: Kinetic study: plasma kinetics of TMC278 after single IM or SC injection of a nanosuspension
Type: in vivo, male beagle dogs
TEST CONDITIONS: male, beagle, dog, plasma, intramuscular, 5 mg/kg, plasma concentration of TMC278, single IM 5 mg/kg TMC278 nanosuspension, dog 18186, 2040 h (d85)
ENDPOINT LABEL: concentration at 2040 h (ng/mL)
Numbers only, in ng/mL.

The measured concentration at 2040 h associated with Cc1cc(C=CC#N)cc(C)c1Nc1ccnc(Nc2ccc(C#N)cc2)n1 reads 1.61

###

METHOD DESCRIPTION: Kinetic study: plasma kinetics of TMC278 after single IM or SC injection of a nanosuspension
Format: in vivo, male beagle dogs
TEST CONDITIONS: male, beagle, dog, plasma, intramuscular, 5 mg/kg, plasma concentration of TMC278, single IM 5 mg/kg TMC278 nanosuspension, mean of 2 dogs, 2040 h (d85)
ENDPOINT LABEL: concentration at 2040 h

The measured concentration at 2040 h associated with Cc1cc(C=CC#N)cc(C)c1Nc1ccnc(Nc2ccc(C#N)cc2)n1 [TMC278] reads 1.8 ng/mL

###

METHOD DESCRIPTION: Kinetic study: plasma kinetics of TMC278 after single IM or SC injection of a nanosuspension;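 also: healthy male beagle dogs injected in both biceps femoris muscles (IM) or both thoracal sides (SC), total volume 0.2 mL/kg, drug measured in plasma from blood samples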
Type: in vivo, male beagle dogs
TEST CONDITIONS: male, beagle, dog, plasma, im, 5 mg/kg, single IM 5 mg/kg TMC278 nanosuspension, dog 18186; read-out: AUC0-2208 h
ENDPOINT LABEL: AUC(0-t) (ng·h/mL)
Answers are plain numbers, in ng·h/mL.

The measured AUC(0-t) associated with Cc1cc(C=CC#N)cc(C)c1Nc1ccnc(Nc2ccc(C#N)cc2)n1 [TMC278] reads 38200
